Hi there, I'd appreciate the recorded AUC for every entry that follows.
# experiment description: Comparative pharmacokinetic test in white rats
# Assay type: in vivo, white rats (Sprague-Dawley)
# condition: male, Sprague-Dawley, plasma, po; rat, 50 mg/kg, P.O., trapezoid rule
Numbers only, in ng·h/mL.

List reported AUC for each of these compounds:
1. CS(=O)(=O)O.Cc1ccc(NC(=O)c2ccc(CN3CCCN(C)CC3)cc2)cc1Nc1nccc(-c2cccnc2)n1 [Example 2]
2. CS(=O)(=O)O.Cc1ccc(NC(=O)c2ccc(CNN3CCN(C)CC3)cc2)cc1Nc1nccc(-c2cccnc2)n1 [Example 4]

Completion:
[26200, 23000]

---

# experiment description: Comparative pharmacokinetic test in white rats
# Format: in vivo, white rats (Sprague-Dawley)
# condition: male, Sprague-Dawley, plasma, po; rat, 50 mg/kg, P.O.
readout kind: Tmax (h)
Numbers only, in h.

CS(=O)(=O)O.Cc1ccc(NC(=O)c2ccc(CN3CCCN(C)CC3)cc2)cc1Nc1nccc(-c2cccnc2)n1
1.5

Let's switch to this molecule now.
The measured Tmax associated with CS(=O)(=O)O.Cc1ccc(NC(=O)c2ccc(CNN3CCN(C)CC3)cc2)cc1Nc1nccc(-c2cccnc2)n1 reads 2

---

# experiment description: Comparative pharmacokinetic test in white rats
# Format: in vivo, white rats (Sprague-Dawley)
# condition: male, Sprague-Dawley, plasma, iv; rat, 50 mg/kg, I.V.
readout kind: AUC (ng·h/mL)
Numbers only, in ng·h/mL.

For CN1CCCN(Cc2ccc(C(=O)Nc3ccc(Nc4nccc(-c5cccnc5)n4)cc3)cc2)CC1.CS(=O)(=O)O the compound record lists AUC as 8920

---

# Tested on: U937 cancer cell (monocyte like leukemia cell line)
# experiment description: Growth inhibition of U937 cancer cell (MTT)
# Type: cell-based
# condition: Homo sapiens, U-937
# Description: In the present experiment, the inhibitory activity of the compound of formula (1) was determined against the growth of K562 cancer cell. […] DMSO was added to dissolve the crystal, and the absorbance of the solution was measured at 540 nm. IC50 value was calculated using a computer system according to the following formula: […] In the present experiment, the inhibitory activity of the compound of formula (1) was determined against the growth of U937 cancer cell. […]
Define the label as yes when IC50 is strictly less than 5 µg/mL and as no in all remaining cases.

Prompt: Confirm or reject: IC50 of CS(=O)(=O)O.Cc1ccc(NC(=O)c2ccc(CNN3CCN(C)CC3)cc2)cc1Nc1nccc(-c2cccnc2)n1 lies strictly below 5 µg/mL
Completion: yes

Prompt: For this molecule, is IC50 lower than 5 µg/mL? COc1ccc(NC(=O)c2ccc(CNN3CCN(C)CC3)cc2)cc1Nc1nccc(-c2cccnc2)n1.CS(=O)(=O)O
Completion: no

Prompt: is_below(IC50, 5 µg/mL) for CN1CCCN(Cc2ccc(C(=O)Nc3cccc(Nc4nccc(-c5cccnc5)n4)c3)cc2)CC1.CS(=O)(=O)O ?
Completion: yes

---

# Tested on: U937 cancer cell (monocyte like leukemia cell line)
# experiment description: Growth inhibition of U937 cancer cell (MTT)
# Format: cell-based
# condition: Homo sapiens, U-937
So I've got a bunch of compounds here, and I need their log10 of IC50 values.
A value of 2 here means IC50 of 100 in µg/mL, since values are log10.

A selection of reference data follows.
CS(=O)(=O)O.Cc1ccc(Nc2nccc(-c3cccnc3)n2)cc1NC(=O)c1ccc(CN2CCCN(C)CC2)cc1
0.71
CS(=O)(=O)O.Cc1ccc(NC(=O)c2ccc(CN3CCCN(C)CC3)cc2)cc1Nc1nccc(-c2cccnc2)n1
-0.15
CS(=O)(=O)O.Cc1ccc(Nc2nccc(-c3cccnc3)n2)cc1NC(=O)c1ccc(CNN2CCN(C)CC2)cc1
0.97
CN1CCCN(Cc2ccc(C(=O)Nc3ccc(Nc4nccc(-c5cccnc5)n4)cc3)cc2)CC1.CS(=O)(=O)O
0.86
CS(=O)(=O)O.O=C(Nc1cccc(Nc2nccc(-c3cccnc3)n2)c1)c1ccc(CN2CCCCC2)cc1
0.84

// next entry
Lookup result for COc1ccc(NC(=O)c2ccc(CN3CCCN(C)CC3)cc2)cc1Nc1nccc(-c2cccnc2)n1.CS(=O)(=O)O ; measured log10 of IC50: 0.98
